system: CDKL5; conditions: concentration: 1 μM, replicates: in singlicate; n = 1;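 also: KINOMEscan kinase panel screen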
The reader will find reported %Inh values listed item by item below.
Your answer should be a plain number; it is taken to be in %.

The cases that follow already have their %Inh on record.
N#Cc1ccc(Oc2ccc(Nc3ncnc4cc[nH]c34)cc2Cl)cc1 :: 14
Fc1cccc(COc2ccc(Nc3ncnc4nn5ccccc5c34)cc2Cl)c1 :: 0
CN1CCC(n2cnc(-c3ccc(F)cc3)c2-c2ccnc(NC3CCNCC3)n2)CC1 :: 0
FC(F)(F)c1ccc(-c2nn3ncccc3c2-c2ccnc(Nc3cccc(C(F)(F)F)c3)n2)cc1 :: 0
COc1cc2ncnc(Nc3ccc(OCc4ccccc4Br)c(Cl)c3)c2cc1OC.Cl :: 0
COC(=O)c1c(-c2ccccc2)c2cc(Cl)ccc2c(=O)n1Cc1ccc(S(C)(=O)=O)cc1 :: 33

Dear colleague, I am looking for the recorded %Inh of the following molecule: CCCc1ccc(S(=O)(=O)NC2CCN(c3ccnc(Nc4ccc(OC)cc4)n3)C2)cc1 (centres unmarked)
0

Dear colleague, I am looking for the recorded %Inh of the following molecule: CS(=O)(=O)CCNCc1ccc(-c2ccc3ncnc(Nc4ccc(OCc5ccccc5)c(Cl)c4)c3c2)o1.Cl
0

Dear colleague, I am looking for the recorded %Inh of the following molecule: Nc1nc(-c2ccc3c(N)n[nH]c3c2)cc(N2CCC[C@@H](C(=O)Nc3ccccc3)C2)n1.O=C(O)C(F)(F)F.O=C(O)C(F)(F)F
2

Dear colleague, I am looking for the recorded %Inh of the following molecule: O=C(Nc1ccccc1)Nc1ccc(Oc2ccc3nccn3n2)cc1
0

Dear colleague, I am looking for the recorded %Inh of the following molecule: C[C@H]1CC[C@@H](C(=O)Nc2ccccc2)CN1c1cc(-c2ccc3c(N)n[nH]c3c2)nc(N)n1
0

Dear colleague, I am looking for the recorded %Inh of the following molecule: Cc1ccc(O)cc1Nc1cc(C(F)(F)F)nc2ccc(-c3ccncc3)cc12
0

* * *

The reader will find reported %Inh values listed item by item below.
tested on: MRCKB; construct: gene CDC42BPB; conditions: concentration: 1 μM, replicates: in singlicate; n = 1
State the value, then name its unit.

The cases that follow already have their %Inh on record.
Clc1cccc(-c2nc(Nc3ccncc3)c3ccccc3n2)c1 [GW873004] :: 42%
Cc1ccc(NC(=O)c2cccc(C#N)c2)cc1-c1ccc(C(=O)Nc2ccncc2)cc1 [GSK1398463] :: 8%
CCc1nc(-c2cccc(N(C)S(=O)(=O)c3ccccc3)c2)c(-c2ccnc(Nc3ccc(N4CCN(C(C)=O)CC4)nc3)n2)s1 [GSK1645895] :: 0%
Fc1cccc(COc2ccc(Nc3ncnc4cc[nH]c34)cc2Cl)c1 :: 0%
Oc1ccc2ncnc(Nc3ccc(OCc4ccccc4)cc3)c2c1 [GI262866] :: 0%

We now examine a further compound.
Dear colleague, I am looking for the recorded %Inh of the following compound: Cc1cc(N2CCC(NS(=O)(=O)c3ccc(F)cc3)CC2)nc(Nc2cccc(C#N)c2)n1.O=C(O)C(F)(F)F [GSK1653537]
0%

* * *

system: DCAMKL2; construct: gene DCLK2; conditions: concentration: 1 μM, replicates: in singlicate; n = 1
observation-type: %Inh (%)
Your answer should be a plain number; it is taken to be in %.

O=C(NCCCN1CCCC1=O)c1cnc(NCc2cc(Cl)ccc2Cl)nc1NC1CCNCC1 :: 12
Fc1ccc(-c2ncn(CCCNCc3ccccc3)c2-c2ccncc2)cc1 :: 2
Cl.O=S(=O)(c1cccc(F)c1)c1ccc(Nc2ncnc3cc(Br)sc23)cc1Cl :: 0

Kindly state the measured %Inh obtained for Nc1nc(-c2ccc3c(N)n[nH]c3c2)cc(N2CCC[C@@H](C(=O)Nc3ccccc3)C2)n1.O=C(O)C(F)(F)F.O=C(O)C(F)(F)F with DCAMKL2.
0

Kindly state the measured %Inh obtained for Fc1cccc(COc2ccc(Nc3ncnc4sc(-c5ccc[nH]5)cc34)cc2Cl)c1 with DCAMKL2.
0

Kindly state the measured %Inh obtained for CC(=O)Nc1n[nH]c2ncc(-c3ccccc3)cc12 with DCAMKL2.
15

Kindly state the measured %Inh obtained for O=c1cc(N2CCOCC2)nc2n(Cc3cccc(Cl)c3)ccn12 with DCAMKL2.
12

Kindly state the measured %Inh obtained for CCc1nc(-c2cccc(C)c2)c(-c2ccnc(NC(=O)c3ccccc3)c2)s1 with DCAMKL2.
6

Kindly state the measured %Inh obtained for OCCOCCn1ccc2ncnc(Nc3ccc(Oc4cccc(Cl)c4)c(Cl)c3)c21 with DCAMKL2.
0

* * *

The reader will find reported %Inh values listed item by item below.
system: SRPK1; settings: concentration: 1 μM, replicates: in singlicate; n = 1
State the value, then name its unit.

The cases that follow already have their %Inh on record.
COC(=O)c1c(-c2ccccc2)c2cc(Cl)ccc2c(=O)n1Cc1ccc(S(C)(=O)=O)cc1 :: 10%
CC(C)N1CCC(n2cnc(-c3ccc(F)cc3)c2-c2ccnc(N)n2)CC1 :: 0%
COc1ccc(Nc2nccc(N3CCC(NC(=O)Nc4ccc5c(c4)OCO5)C3)n2)cc1 (stereo not drawn) :: 29%

We now examine a further molecule.
Dear colleague, I am looking for the recorded %Inh of the following molecule: CNc1nccc(-c2c(-c3ccc(F)cc3)ncn2C2CCN(C)CC2)n1
0%

* * *

system: MKNK2; conditions: concentration: 1 μM, replicates: in singlicate; n = 1
observation-type: %Inh (%)
Your answer should be a plain number; it is taken to be in %.

The cases that follow already have their %Inh on record.
COC(=O)c1c(-c2ccccc2)c2cc(Cl)ccc2c(=O)n1Cc1ccc(S(C)(=O)=O)cc1 :: 0
Cc1cc(N2CCC(NS(=O)(=O)c3ccc(F)cc3)CC2)nc(Nc2cccc(C#N)c2)n1.O=C(O)C(F)(F)F :: 3
c1ccc(-c2ccc3c(-c4ccnc(Nc5ccc6c(c5)OCCO6)n4)cnn3n2)cc1 :: 2
Cn1ccc2ncnc(Nc3ccc(Oc4cccc(Cl)c4)c(Cl)c3)c21 :: 0
CSc1nn2c(=O)cc(N3CCOCC3)nc2n1Cc1cccc(Cl)c1Cl :: 2

Dear colleague, I am looking for the recorded %Inh of the following compound: CN1c2ccc(-c3ccc(C(=O)NCCO)cc3)cc2-c2[nH]ncc2S1(=O)=O
0

Dear colleague, I am looking for the recorded %Inh of the following compound: OCCOCCn1ccc2ncnc(Nc3ccc(Oc4cccc(Cl)c4)c(Cl)c3)c21
3

Dear colleague, I am looking for the recorded %Inh of the following compound: COc1cc2c(Nc3cccc(NC(=O)c4ccccc4)c3)ncnc2cc1OCCCN1CCOCC1
9

* * *

tested on: GSK3B; conditions: concentration: 1 μM, replicates: in singlicate; n = 1
Flag rule - %Inh less than 5% flags rule met; the remaining entries get rule not met.

Example cases with answers are listed next.
CC(C)N1CCC(n2cnc(-c3ccc(F)cc3)c2-c2ccnc(N)n2)CC1 [SB-223132] :: rule met
CNc1nccc(-c2c(-c3ccc(F)cc3)ncn2CCCN2CCOCC2)n1 [SB-222516] :: rule not met
CC(C)(C)c1ccc(-n2cnc3c(N)ncnc32)cc1 [SKF-97263] :: rule met
Clc1cccc(-c2nc(Nc3ccncc3)c3ccccc3n2)c1 [GW873004] :: rule met
NC(=O)c1sc(-n2cnc3ccccc32)cc1OCc1ccccc1F [GSK1024306] :: rule met

Check if %Inh falls below 5% for O=C(c1ccc(-c2cc(-c3c[nH]nc3-c3ccccn3)ccn2)cc1)N1CCCC1 [GW792479] .
rule met

Check if %Inh falls below 5% for COc1ccc(Nc2nccc(N3CCC(NC(=O)Nc4ccc5c(c4)OCO5)C3)n2)cc1 (stereo not shown) [GSK1379745] .
rule not met

Check if %Inh falls below 5% for Cl.Fc1ccccc1COc1ccc(Nc2ncnc3ccc(-c4nnc(C(F)(F)F)o4)cc23)cc1Cl [GW424170] .
rule met

Check if %Inh falls below 5% for Cl.Cn1ccc(-c2cccc(Nc3ccnc4cc(-c5nccs5)ccc34)c2)n1 [GW525701] .
rule not met

Check if %Inh falls below 5% for O=C(Nc1ccccc1F)NC1CCN(c2ccnc(Nc3ccc(F)cc3)n2)C1 (stereo not shown) [GSK1379722] .
rule not met

Check if %Inh falls below 5% for Cn1ccc2ncnc(Oc3ccc(NC(=O)Nc4cccnc4)c(Cl)c3)c21 .
rule met

* * *

tested on: SGK2; settings: concentration: 1 μM, replicates: in singlicate; n = 1
observation-type: %Inh (%)
Your answer should be a plain number; it is taken to be in %.

CC(C)(C)OC(=O)NC1CCCN(c2cc(-c3ccc4c(N)n[nH]c4c3)nc(N)n2)C1 (stereo not shown) [GSK2286096] :: 0
FC(F)(F)c1cc(Nc2nccc(-c3c(-c4ccc(Cl)cc4)nn4ncccc34)n2)ccc1Cl [GW829351] :: 0
O=C(Nc1n[nH]c2nc(-c3ccco3)c(Br)cc12)c1ccc(CN2CCCC2)cc1.O=C(O)[C@H](O)[C@@H](O)C(=O)O [SB-742352] :: 1

We now examine a further compound.
Dear colleague, I am looking for the recorded %Inh of the following compound: Fc1ccc(-c2ncn(CCCNCc3ccccc3)c2-c2ccncc2)cc1
19
